Recorded values, source ChEMBL document CHEMBL2046419.

Catalogue of compounds with associated MIC
- System: Bacillus cereus
- Assay summary: Antibacterial activity against Bacillus cereus ACCC 11077 after 24 hrs by serial dilution technique
- Format: functional
- Condition parameters: ACCC 11077, 24 h

>>> reported("COc1cc(O)c2c(c1OC(C)=O)C(=O)c1cc(C)ccc1C2=O")
"> 200 µM"

Exercise: Fill in reported MIC for this entry: COc1cc(O)c2c(c1O)C(=O)c1cc(C)c(O)cc1C2=O
Key: > 200 µM

Exercise: Fill in reported MIC for this entry: COc1cc(O)c2c(c1OC(C)=O)C(=O)c1cc(C)c(OC(C)=O)cc1C2=O
Key: > 200 µM

====

Catalogue of molecules with associated MIC
- System: Staphylococcus aureus
- Assay summary: Antibacterial activity against Staphylococcus aureus ATCC 27154 after 24 hrs by serial dilution technique
- Format: functional
- Condition parameters: ATCC 27154, 24 h

Solved entries (count: 3):
>>> reported("COc1cc(O)c2c(c1OC(C)=O)C(=O)c1cc(C)ccc1C2=O")
"> 200 µM"
>>> reported("COc1cc(OC(C)=O)c2c(c1O)C(=O)c1cc(C)c(O)cc1C2=O")
"> 200 µM"
>>> reported("COc1cc(O)c2c(c1O)C(=O)c1cc(C)ccc1C2=O [AUSTROCORTIRUBIN]")
"> 200 µM"

Exercise: Fill in reported MIC for this entry: COc1cc(O)c2c(c1O)C(=O)c1cc(C)c(O)cc1C2=O
Key: > 200 µM

Exercise: Fill in reported MIC for this entry: COc1cc(OC(C)=O)c2c(c1O)C(=O)c1cc(C)c(OC(C)=O)cc1C2=O
Key: > 200 µM

Exercise: Fill in reported MIC for this entry: COc1cc(OC(C)=O)c2c(c1OC(C)=O)C(=O)c1cc(C)c(O)cc1C2=O
Key: > 150 µM

Exercise: Fill in reported MIC for this entry: COc1cc(OC(C)=O)c2c(c1OC(C)=O)C(=O)c1cc(C)c(OC(C)=O)cc1C2=O
Key: > 140 µM

====

- System: Micrococcus luteus
- Assay summary: Antibacterial activity against Micrococcus luteus ATCC 49732 after 24 hrs by serial dilution technique
- Type: functional
- Condition parameters: ATCC 49732, 24 h
Value kind: MIC

Solved entries (count: 3):
>>> reported("COc1cc(O)c2c(c1OC(C)=O)C(=O)c1cc(C)ccc1C2=O")
"> 200 µM"
>>> reported("COc1cc(OC(C)=O)c2c(c1OC(C)=O)C(=O)c1cc(C)c(O)cc1C2=O")
"> 150 µM"
>>> reported("COc1cc(O)c2c(c1O)C(=O)c1cc(C)ccc1C2=O")
"> 200 µM"

Exercise: Fill in reported MIC for this entry: COc1cc(OC(C)=O)c2c(c1O)C(=O)c1cc(C)c(OC(C)=O)cc1C2=O
Key: > 200 µM

Exercise: Fill in reported MIC for this entry: COc1cc(O)c2c(c1O)C(=O)c1cc(C)c(OC(C)=O)cc1C2=O
Key: > 200 µM

Exercise: Fill in reported MIC for this entry: COc1cc(O)c2c(c1O)C(=O)c1cc(C)c(O)cc1C2=O
Key: > 200 µM

Exercise: Fill in reported MIC for this entry: COc1cc(O)c2c(c1O)[C@H](OC)[C@H]1C[C@](C)(O)[C@H](O)C[C@H]1C2=O
Key: > 100 µM

Exercise: Fill in reported MIC for this entry: COC1=CC(=O)c2c(O)c3c(c(O)c2C1=O)C[C@](C)(O)[C@H](OC(C)=O)[C@H]3O
Key: > 200 µM

Exercise: Fill in reported MIC for this entry: COc1cc(O)c2c(c1O)[C@H](O)[C@H]1C[C@](C)(O)[C@H](O)[C@@H](O)[C@@H]1C2=O [9ALPHA-HYDROXYHALOROSELLINIA A]
Key: > 100 µM

Exercise: Fill in reported MIC for this entry: COc1cc(OC(C)=O)c2c(c1O)C(=O)c1cc(C)c(O)cc1C2=O
Key: > 200 µM

Exercise: Fill in reported MIC for this entry: COc1cc(O)c2c(c1OC(C)=O)C(=O)c1cc(C)c(O)cc1C2=O
Key: > 200 µM
